Consider the following compounds; for each one, report its inhibition.
TEST_TARGET: Tyrosine-protein kinase CSK (Homo sapiens);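 note: value given is the averaged percent inhibition of CSK kinase activity, from the GSK PKIS kinase inhibitor set screening panel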
CONDITION_INFO: at 0.1 µM
Give bare numbers, in %.

{"columns": ["COMPOUND", "inhibition [%]"],
 "data": [
  ["c1ccc(COc2ccc(Nc3ncnc4ccc(-c5ccco5)cc34)cc2)cc1", 0.39]
]}

# map each compound to its inhibition
1. COc1cc2ncn(-c3cc(OCc4ccccc4C(F)(F)F)c(C(=O)N(C)C)s3)c2cc1OC
2. Cc1cccc2c1NC(=O)/C2=N\Nc1ccc(S(N)(=O)=O)cc1

a:
1: -1.4; 2: 3.78

----------
TEST_TARGET: Testis-specific serine/threonine-protein kinase 1 (Homo sapiens) (UniProt Q9BXA7);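 note: reported value is the mean inhibition, from the GSK PKIS kinase screening panel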
Sequence (Q9BXA7 whole entry): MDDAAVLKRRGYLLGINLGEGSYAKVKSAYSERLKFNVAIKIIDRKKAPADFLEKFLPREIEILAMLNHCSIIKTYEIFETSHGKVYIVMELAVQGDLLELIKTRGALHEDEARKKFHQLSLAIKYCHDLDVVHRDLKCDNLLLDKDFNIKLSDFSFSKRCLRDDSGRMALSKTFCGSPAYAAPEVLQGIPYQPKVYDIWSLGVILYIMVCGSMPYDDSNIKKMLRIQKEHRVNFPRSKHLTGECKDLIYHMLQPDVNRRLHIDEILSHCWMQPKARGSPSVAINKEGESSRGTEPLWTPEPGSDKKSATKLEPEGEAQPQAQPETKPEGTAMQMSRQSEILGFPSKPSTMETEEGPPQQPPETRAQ
CONDITION_INFO: at 1 µM
VALUE_TYPE: inhibition
The answer consists of two parts: a number and, after it, its unit.

The following compounds have reported results that may help.
{"columns": ["SMILES_INPUT", "inhibition"],
 "data": [
  ["NS(=O)(=O)c1ccc(N/N=C2\\C(=O)Nc3ccc4ncccc4c32)cc1", "34.9%"],
  ["COc1ccc(CNC(=O)c2ccc(-c3cc(-c4nnc(C)o4)ccc3C)cc2)cc1", "6.39%"],
  ["CC(=O)NCc1cccc(C#Cc2cncnc2Nc2ccc(OCc3cccc(F)c3)c(Cl)c2)c1", "2.15%"],
  ["Fc1cccc(COc2ccc(Nc3ncnc4sc(-c5ccco5)cc34)cc2Cl)c1", "3.11%"]
]}

# per-item lookup of inhibition; items listed below
1. CCn1c(-c2nonc2N)nc2cnc(Oc3cccc(NC(=O)c4ccc(N(C)C)cc4)c3)cc21
2. COC(=O)Nc1nc2ccc(S(=O)(=O)c3ccc(NC(=O)Nc4cc(C(F)(F)F)ccc4F)cc3)cc2[nH]1
3. CC(=O)Nc1cccc(C#Cc2cncnc2Nc2ccc(OCc3cccc(F)c3)c(Cl)c2)c1
4. COc1cc(Nc2nccc(Nc3ccc4c(C)n[nH]c4c3)n2)cc(OC)c1OC
5. NS(=O)(=O)c1ccc(Nc2ncc(-c3ccccc3)o2)cc1
6. CCc1nn2ncccc2c1-c1ccnc(NC2CC2)n1

a:
1: 52.2%; 2: 0.57%; 3: 0.24%; 4: 12.6%; 5: 2.89%; 6: 3.93%

Look up inhibition for the entries below, preserving their order.
1. COc1cc(N2CCN(C(C)C)CC2)ccc1Nc1nc(Nc2ccc(F)cc2C(N)=O)c2cc[nH]c2n1
2. CCn1c(-c2nonc2N)nc2c(C#CC(C)(C)O)ncc(OC3CCNCC3)c21

a:
95.4%
71.4%

----------
Hi there, I'd appreciate the recorded inhibition for every entry that follows.
TEST_TARGET: Mitogen-activated protein kinase 3 (Homo sapiens) (UniProt P27361);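 note: values are mean percent inhibition of MAPK3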
Sequence (P27361 whole entry): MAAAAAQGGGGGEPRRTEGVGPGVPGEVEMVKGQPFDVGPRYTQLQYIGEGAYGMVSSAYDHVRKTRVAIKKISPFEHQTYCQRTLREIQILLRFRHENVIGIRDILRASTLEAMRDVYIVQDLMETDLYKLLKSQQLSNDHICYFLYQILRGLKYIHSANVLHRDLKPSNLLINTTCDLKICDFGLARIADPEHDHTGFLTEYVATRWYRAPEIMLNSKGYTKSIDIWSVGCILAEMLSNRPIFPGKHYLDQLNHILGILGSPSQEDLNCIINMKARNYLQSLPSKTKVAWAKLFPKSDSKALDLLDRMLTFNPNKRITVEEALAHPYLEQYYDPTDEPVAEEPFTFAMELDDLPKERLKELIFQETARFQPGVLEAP
CONDITION_INFO: at 1 µM

Take a look at these entries with their results.
{"columns": ["SMILES_INPUT", "TEST_TARGET", "inhibition"],
 "data": [
  ["O=C(Nc1n[nH]c2cc(-c3ccc(F)cc3)ccc12)C1CC1", "Mitogen-activated protein kinase 3 (Homo sapiens) (UniProt P27361)", "0.11%"],
  ["Clc1ccc(-c2nn3ncccc3c2-c2ccnc(Nc3ccccc3)n2)cc1", "Mitogen-activated protein kinase 3 (Homo sapiens) (UniProt P27361)", "0.24%"],
  ["COc1ccc(CNC(=O)c2ccc(-c3cc(-c4nnc(C)o4)ccc3C)cc2)cc1", "Mitogen-activated protein kinase 3 (Homo sapiens) (UniProt P27361)", "1.53%"],
  ["COc1cccc(-n2ncc3c(N/N=C/c4ccc(F)cc4)ncnc32)c1", "Mitogen-activated protein kinase 3 (Homo sapiens) (UniProt P27361)", "3.8%"],
  ["COc1ccc(-c2cc3c(N)ncnc3o2)cc1", "Mitogen-activated protein kinase 3 (Homo sapiens) (UniProt P27361)", "-1.51%"],
  ["c1ccc(COc2ccc(Nc3ncnc4ccc(-c5ccco5)cc34)cc2)cc1", "Mitogen-activated protein kinase 3 (Homo sapiens) (UniProt P27361)", "1.18%"],
  ["O=C(O[C@H]1CN[C@H](C#Cc2cc3ncnc(Nc4ccc(Cc5ccccc5)cc4)c3s2)C1)N1CCOCC1", "Mitogen-activated protein kinase 3 (Homo sapiens) (UniProt P27361)", "2.11%"],
  ["NC(=O)c1sc(-n2cnc3ccc(C(F)(F)F)cc32)cc1OCc1ccccc1Br", "Mitogen-activated protein kinase 3 (Homo sapiens) (UniProt P27361)", "0.62%"],
  ["CS(=O)(=O)CCNCc1coc(-c2ccc3ncnc(Nc4ccc(OCc5ccccc5)cc4)c3c2)c1", "Mitogen-activated protein kinase 3 (Homo sapiens) (UniProt P27361)", "4.16%"],
  ["CCNC(=O)O[C@H]1CN[C@H](C#Cc2cc3ncnc(Nc4ccc(OCc5cccc(F)c5)c(Cl)c4)c3s2)C1", "Mitogen-activated protein kinase 3 (Homo sapiens) (UniProt P27361)", "1.29%"]
]}

Dear colleague, could you send me inhibition for each of the items below? Thanks.
1. CCN(CC)S(=O)(=O)c1ccc(OC)c(Nc2ncc(-c3ccccc3)o2)c1
2. CNC(=O)c1cc(-c2ccc(F)cc2)cc(-c2ccc(S(=O)(=O)N3CCCC3)cc2)c1N
3. COc1cc(Nc2nccc(Nc3ccc4c(C)n[nH]c4c3)n2)cc(OC)c1OC
4. CCCN1CCC(c2ccc(Nc3nc(Nc4cc(F)ccc4C(N)=O)c4cc[nH]c4n3)c(OC)c2)CC1
5. COc1ccc2c(-c3ccnc(Nc4cccc(OC(F)(F)F)c4)n3)cnn2n1

a:
4.26%
1.92%
2.18%
13.1%
3.9%

Look up inhibition for the entries below, preserving their order.
1. COc1ccc(-c2cc(-c3c[nH]nc3-c3ccccn3)ccn2)cc1
2. CS(=O)(=O)CCNCc1ccc(-c2ccc3ncnc(Nc4ccc(OCc5ccccc5)c(C(F)(F)F)c4)c3c2)o1
3. CCN1CCC(CC(=O)Nc2n[nH]c3nnc(-c4cccc(F)c4F)cc23)CC1
4. CCOc1ccc2c(-c3ccnc(Nc4cccc(C(F)(F)F)c4)n3)cnn2n1

a:
8.82%
3.07%
2.9%
2.69%

// batch mode: one inhibition value per listed entry
1. CCn1c(-c2nonc2N)nc2cnc(Oc3cccc(NC(=O)c4ccc(N(C)C)cc4)c3)cc21
2. Nc1nc(-c2ccc(F)cc2)c(-c2ccc3ncccc3n2)s1
3. Cc1cccc(Nc2ncc(-c3ccccc3)o2)c1
4. CC(C)(CO)CNC(=O)c1ccc2c(c1)/C(=N/Nc1ccc(S(N)(=O)=O)cc1)C(=O)N2
5. CC(=O)NCc1cccc(C#Cc2cncnc2Nc2ccc(OCc3cccc(F)c3)c(Cl)c2)c1
6. CN(C)CCOc1ccc(-c2nc(-c3ccncc3)c(-c3ccc4c(c3)CC/C4=N\O)[nH]2)cc1

a:
1. 1.36%
2. 3.86%
3. 3.87%
4. 16.6%
5. 2.72%
6. 3.36%

Look at each molecule and report its inhibition.
1. COc1ccc(-c2nn3ncccc3c2-c2ccnc(Nc3ccc4c(c3)OCCO4)n2)cc1
2. CNC(=O)c1cncc(/C=C/c2ccccc2Cl)c1
3. COc1cc2c(cc1Nc1nc(Nc3ccsc3C(N)=O)c3cc[nH]c3n1)N(C(=O)CN(C)C)CCC2(C)C
4. O=S(=O)(CCNCc1ccc(-c2ccc3ncnc(Nc4ccc(OCc5cccc(F)c5)c(Cl)c4)c3c2)o1)c1ccccc1
5. CCCN(CCS(C)(=O)=O)Cc1ccc(-c2ccc3ncnc(Nc4ccc(OCc5cccc(F)c5)c(Cl)c4)c3c2)o1
6. COc1cc(/C=N/Nc2ncnc3[nH]ncc23)ccc1O
7. CC(=O)Nc1cccc(C#Cc2cncnc2Nc2ccc(OCc3cccc(F)c3)c(Cl)c2)c1

a:
1. 1.27%
2. 2.18%
3. 3.62%
4. 6%
5. 2.62%
6. 6.69%
7. 3.68%

I need inhibition for every entry listed below, if you could help.
1. [O-][S+]1CCN(Cc2ccc(-c3ccc4ncnc(Nc5ccc(OCc6cccc(F)c6)c(Cl)c5)c4c3)o2)CC1
2. Fc1cccc(COc2ccc(Nc3ncnc4sc(-c5ccco5)cc34)cc2Cl)c1
3. CCn1c(-c2nonc2N)nc2c(C#CC(C)(C)O)ncc(OC3CCNCC3)c21

a:
4.13%
4.3%
4.59%

I would be grateful if you could provide inhibition for each of the following entries.
1. CN1CCC(n2cnc(-c3ccc(F)cc3)c2-c2ccnc(N)n2)CC1
2. COc1ccc(-c2oc3ncnc(N)c3c2-c2ccc(NC(=O)Nc3cc(C(F)(F)F)ccc3F)cc2)cc1
3. Fc1ccc(-c2nn3ncccc3c2-c2ccnc(Nc3ccc4c(c3)OCCO4)n2)cc1
4. CCn1c(-c2nonc2N)nc2ccccc21
5. Cc1cccc2c1NC(=O)/C2=N\Nc1ccc(S(N)(=O)=O)cc1

a:
["3.12%", "4.66%", "11.3%", "1.82%", "2.55%"]
